All values here come from ChEMBL document CHEMBL1147862.

system: Mus musculus; experiment: Analgesic activity in Swiss mouse assessed as increase in reaction time at 20 mg/kg, po after 60 mins by Eddy's hot plate technique; assay type: functional
Listing of entries alongside the reported Activity.
assayEndpoint: Activity (%)

{"molecule": "COc1ccc(Cc2nnc3sc(-c4cc(C)nc5ccccc45)nn23)cc1OC", "quantityUnit": "%", "endpointValue": 11.05}
{"molecule": "COc1ccc(Cl)c(-c2nnc3n2NC(c2ccc[nH]2)S3)c1 (stereo unspecified)", "quantityUnit": "%", "endpointValue": 14.48}
{"molecule": "COc1ccc2[nH]c(C)c(Cc3nn4c(-c5ccoc5C)nnc4s3)c2c1", "quantityUnit": "%", "endpointValue": 23.17}
{"molecule": "COc1ccc(Cl)c(-c2nnc3sc(-c4ccnc(F)c4)nn23)c1", "quantityUnit": "%", "endpointValue": 11.35}
{"molecule": "COc1ccc2[nH]cc(Cc3nn4c(-c5ccoc5C)nnc4s3)c2c1", "quantityUnit": "%", "endpointValue": 24.76}
{"molecule": "O=C([O-])Cc1ccccc1Nc1c(Cl)cccc1Cl.[Na+] [DICLOFENAC SODIUM]", "quantityUnit": "%", "endpointValue": 38.15}
{"molecule": "Cc1occc1-c1nnc2sc(-c3cc(-c4ccccc4)nc4ccccc34)nn12", "quantityUnit": "%", "endpointValue": 14.48}
{"molecule": "COc1ccc(Cl)c(-c2nnc3sc(-c4cc(O)nc(O)c4)nn23)c1", "quantityUnit": "%", "endpointValue": 15.18}
{"molecule": "COc1ccc(Cl)c(-c2nnc3sc(-c4ccnc5ccccc45)nn23)c1", "quantityUnit": "%", "endpointValue": 17.24}
{"molecule": "Cc1occc1-c1nnc2n1NC(c1ccc[nH]1)S2 (stereo unspecified)", "quantityUnit": "%", "endpointValue": 17.45}
{"molecule": "COc1ccc(Cc2nnc3sc(-c4ccnc(Cl)c4)nn23)cc1OC", "quantityUnit": "%", "endpointValue": 12.55}
{"molecule": "Cc1occc1-c1nnc2sc(-c3cc(O)nc(O)c3)nn12", "quantityUnit": "%", "endpointValue": 11.45}
{"molecule": "COc1ccc(Cc2nnc3n2NC(c2ccco2)S3)cc1OC (stereo unspecified)", "quantityUnit": "%", "endpointValue": 17.26}
{"molecule": "COc1ccc(Cl)c(-c2nnc3sc(Cc4c[nH]c5ccccc45)nn23)c1", "quantityUnit": "%", "endpointValue": 28.32}
{"molecule": "Cc1cc(-c2nn3c(-c4ccoc4C)nnc3s2)c2ccccc2n1", "quantityUnit": "%", "endpointValue": 11.35}
{"molecule": "COc1ccc(Cl)c(-c2nnc3sc(-c4cc(-c5ccccc5)nc5ccccc45)nn23)c1", "quantityUnit": "%", "endpointValue": 15.68}

* * *

test system: Mus musculus; assay: Analgesic activity in Swiss mouse assessed as increase in reaction time at 20 mg/kg, po after 60 mins by Eddy's hot plate technique; type: functional

{"compound": "COc1ccc(Cc2nnc3sc(-c4cc(-c5ccccc5)nc5ccccc45)nn23)cc1OC", "quantityUnit": "%", "Activity": 17.26}
{"compound": "COc1ccc(Cl)c(-c2nnc3n2NC(c2cccn2C)S3)c1 (stereo not drawn)", "quantityUnit": "%", "Activity": 6.2}
{"compound": "Cc1occc1-c1nnc2n1NC(c1cccn1C)S2 (stereo not drawn)", "quantityUnit": "%", "Activity": 16.8}
